Biological target: α-synuclein fibrils (Homo sapiens, UniProt P37840)
Test: Competition binding assay against [^3H]BF2846
QUANTITY_MEASURED: Ki (nM)
Answer format: numeric, nM implied, no suffix.

structure_notation=COc1ccc(C(=O)Nc2cc(-c3ccc(Br)cc3)no2)cc1 assay_result=11

Please turn your attention to the following entry.
IN: With α-synuclein fibrils (Homo sapiens, UniProt P37840) as the test system, provide measured Ki for this compound: COc1ccc(C(=O)Nc2cc(-c3ccc(I)cc3)no2)cc1
OUT: 3.6
